- Test system: Talaromyces funiculosus
- protocol summary: Antifungal activity against Penicillium funiculosum ATCC 36839 after 72 hrs by serial dilution assay
- Type: functional
- condition description: ATCC 36839, 72 h
Here, each record is paired with measured MIC data.
Give your result in µM as a bare value.

These recorded examples may help you get a feel for the data.
>>> value_observed("O=C1N/C(=N\\c2nnc(C34CC5CC(CC(C5)C3)C4)s2)S/C1=C/c1cccc([N+](=O)[O-])c1")
107
>>> value_observed("O=C1N/C(=N\\c2nnc(C34CC5CC(CC(C5)C3)C4)s2)S/C1=C/c1ccc(Cl)cc1Cl")
163
>>> value_observed("CC(=O)N1CCN(c2ccc(OCC3COC(Cn4ccnc4)(c4ccc(Cl)cc4Cl)O3)cc2)CC1 (centres undefined)")
380

In: Item O=C1N/C(=N\c2nnc(C34CC5CC(CC(C5)C3)C4)s2)S/C1=C/c1ccc([N+](=O)[O-])cc1 has what recorded MIC?
Out: 12.3

###

- Tested on: Talaromyces funiculosus
- protocol summary: Antifungal activity against Penicillium funiculosum ATCC 36839 after 72 hrs by serial dilution assay
- Type: functional
- condition description: ATCC 36839, 72 h
Here, each record is paired with measured MIC data.

These recorded examples may help you get a feel for the data.
>>> value_observed("O=C1N/C(=N\\c2nnc(C34CC5CC(CC(C5)C3)C4)s2)S/C1=C/c1ccc(Cl)cc1")
"137 µM"
>>> value_observed("O=C1N/C(=N\\c2nnc(C34CC5CC(CC(C5)C3)C4)s2)S/C1=C/c1cccc(Cl)c1")
"137 µM"
>>> value_observed("O=C1N/C(=N\\c2nnc(C34CC5CC(CC(C5)C3)C4)s2)S/C1=C/c1ccc(F)cc1")
"90.9 µM"

In: Item O=C1N/C(=N\c2nnc(C34CC5CC(CC(C5)C3)C4)s2)S/C1=C/c1c(Cl)cccc1Cl has what recorded MIC?
Out: 61 µM

In: Item Cc1ccc(/C=C2/S/C(=N/c3nnc(C45CC6CC(CC(C6)C4)C5)s3)NC2=O)cc1 has what recorded MIC?
Out: 183 µM

###

- System: Aspergillus niger
- protocol summary: Antifungal activity against Aspergillus niger ATCC 6275 after 72 hrs by serial dilution assay
- Format: functional
- condition description: ATCC 6275, 72 h
The label is condition met for MIC below 200 µM and condition not met for MIC equal to or exceeding 200 µM.

>>> assigned_label("O=C1N/C(=N\\c2nnc(C34CC5CC(CC(C5)C3)C4)s2)S/C1=C/c1c(F)cccc1F")
"condition not met"
>>> assigned_label("O=C1N/C(=N\\c2nnc(C34CC5CC(CC(C5)C3)C4)s2)S/C1=C/c1ccccc1[N+](=O)[O-]")
"condition not met"
>>> assigned_label("O=C1N/C(=N\\c2nnc(C34CC5CC(CC(C5)C3)C4)s2)S/C1=C/c1ccc(O)cc1")
"condition met"
>>> assigned_label("O=C1N/C(=N\\c2nnc(C34CC5CC(CC(C5)C3)C4)s2)S/C1=C/c1cccc(Cl)c1Cl")
"condition met"
>>> assigned_label("O=C1N/C(=N\\c2nnc(C34CC5CC(CC(C5)C3)C4)s2)S/C1=C/c1ccc([N+](=O)[O-])cc1")
"condition met"

In: is_below(MIC, 200 µM) for COc1cc(/C=C2/S/C(=N/c3nnc(C45CC6CC(CC(C6)C4)C5)s3)NC2=O)ccc1O ?
Out: condition met

In: is_below(MIC, 200 µM) for COc1ccc(/C=C2/S/C(=N/c3nnc(C45CC6CC(CC(C6)C4)C5)s3)NC2=O)cc1 ?
Out: condition met

In: is_below(MIC, 200 µM) for c1ccc(-c2ccc(C(c3ccccc3)n3ccnc3)cc2)cc1 (centres undefined) ?
Out: condition not met

In: is_below(MIC, 200 µM) for O=C1N/C(=N\c2nnc(C34CC5CC(CC(C5)C3)C4)s2)S/C1=C/c1ccccc1 ?
Out: condition met

In: is_below(MIC, 200 µM) for O=C1N/C(=N\c2nnc(C34CC5CC(CC(C5)C3)C4)s2)S/C1=C/c1ccc(Cl)cc1Cl ?
Out: condition met

In: is_below(MIC, 200 µM) for O=C1N/C(=N\c2nnc(C34CC5CC(CC(C5)C3)C4)s2)S/C1=C/c1ccc(Cl)cc1 ?
Out: condition met

In: is_below(MIC, 200 µM) for CC(=O)N1CCN(c2ccc(OCC3COC(Cn4ccnc4)(c4ccc(Cl)cc4Cl)O3)cc2)CC1 (centres undefined) ?
Out: condition not met

In: is_below(MIC, 200 µM) for O=C1N/C(=N\c2nnc(C34CC5CC(CC(C5)C3)C4)s2)S/C1=C/c1cccc(Cl)c1 ?
Out: condition met

In: is_below(MIC, 200 µM) for O=C1N/C(=N\c2nnc(C34CC5CC(CC(C5)C3)C4)s2)S/C1=C/c1ccc(F)cc1 ?
Out: condition met

In: is_below(MIC, 200 µM) for O=C1N/C(=N\c2nnc(C34CC5CC(CC(C5)C3)C4)s2)S/C1=C/c1ccc(Br)cc1 ?
Out: condition met

In: is_below(MIC, 200 µM) for O=C1N/C(=N\c2nnc(C34CC5CC(CC(C5)C3)C4)s2)S/C1=C/c1c(Cl)cccc1Cl ?
Out: condition met

In: is_below(MIC, 200 µM) for Cc1ccc(/C=C2/S/C(=N/c3nnc(C45CC6CC(CC(C6)C4)C5)s3)NC2=O)cc1 ?
Out: condition met

In: is_below(MIC, 200 µM) for CN(C)c1ccc(/C=C2/S/C(=N/c3nnc(C45CC6CC(CC(C6)C4)C5)s3)NC2=O)cc1 ?
Out: condition met

In: is_below(MIC, 200 µM) for O=C1N/C(=N\c2nnc(C34CC5CC(CC(C5)C3)C4)s2)S/C1=C/c1cccc([N+](=O)[O-])c1 ?
Out: condition not met

###

- Test system: Aspergillus ochraceus
- protocol summary: Antifungal activity against Aspergillus ochraceus ATCC 12066 after 72 hrs by serial dilution assay
- Format: functional
- condition description: ATCC 12066, 72 h
reported endpoint: MIC

These recorded examples may help you get a feel for the data.
>>> value_observed("CN(C)c1ccc(/C=C2/S/C(=N/c3nnc(C45CC6CC(CC(C6)C4)C5)s3)NC2=O)cc1")
"150 µM"
>>> value_observed("O=C1N/C(=N\\c2nnc(C34CC5CC(CC(C5)C3)C4)s2)S/C1=C/c1ccc(Cl)cc1Cl")
"81.4 µM"

In: Item Cc1ccc(/C=C2/S/C(=N/c3nnc(C45CC6CC(CC(C6)C4)C5)s3)NC2=O)cc1 has what recorded MIC?
Out: 183 µM

In: Item O=C1N/C(=N\c2nnc(C34CC5CC(CC(C5)C3)C4)s2)S/C1=C/c1ccc(Cl)cc1 has what recorded MIC?
Out: 68 µM

In: Item O=C1N/C(=N\c2nnc(C34CC5CC(CC(C5)C3)C4)s2)S/C1=C/c1ccc(F)cc1 has what recorded MIC?
Out: 90.9 µM

In: Item c1ccc(-c2ccc(C(c3ccccc3)n3ccnc3)cc2)cc1 (stereo unspecified) has what recorded MIC?
Out: 480 µM

In: Item O=C1N/C(=N\c2nnc(C34CC5CC(CC(C5)C3)C4)s2)S/C1=C/c1ccc(O)cc1 has what recorded MIC?
Out: 71 µM

In: Item O=C1N/C(=N\c2nnc(C34CC5CC(CC(C5)C3)C4)s2)S/C1=C/c1c(Cl)cccc1Cl has what recorded MIC?
Out: 92 µM

In: Item O=C1N/C(=N\c2nnc(C34CC5CC(CC(C5)C3)C4)s2)S/C1=C/c1ccccc1 has what recorded MIC?
Out: 47.5 µM

In: Item O=C1N/C(=N\c2nnc(C34CC5CC(CC(C5)C3)C4)s2)S/C1=C/c1cccc([N+](=O)[O-])c1 has what recorded MIC?
Out: 107 µM

In: Item O=C1N/C(=N\c2nnc(C34CC5CC(CC(C5)C3)C4)s2)S/C1=C/c1ccc(Br)cc1 has what recorded MIC?
Out: 15.6 µM
